B1: HDV Ribozyme (parent)
chain: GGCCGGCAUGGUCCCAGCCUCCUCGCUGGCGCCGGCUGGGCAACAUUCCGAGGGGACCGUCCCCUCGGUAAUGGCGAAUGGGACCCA

Variants of: B1
Experiment: self-cleavage, relative activity (ratio to wild type); higher = more cleavage; co-transcriptional
property measured: self-cleavage
# answer = number (no unit)

>>> df
   sequence_variant  meas_value
0         C18U G55A       0.919
1         U27C U46C       0.138
2         C24A U27G       0.415
3         C44A C58G       0.831
4         A51G C86A        1.16
5         G31C G68C       0.138

Q: Using the record for C19A G40U , report its self-cleavage.
A: 0.0437

Q: Query (variant): G5C A43C ; field requested: self-cleavage
A: 0

Q: What value of measured self-cleavage is listed for C41U G67C ?
A: 0.554

Q: Recorded self-cleavage for C19U G50C , please?
A: 0.332

Q: Please look up its self-cleavage: C3U C15U
A: 0.562

Q: So what's the measured self-cleavage for this one? G11C G38C
A: 0.0755
